- Test system: Human immunodeficiency virus 1
- ASSAY_PROTOCOL: Effective concentration against human immunodeficiency virus type 1 mutated at 181C
- Format: functional, organism-based
Field 'label' (enum: Condition met / Condition not met). Set to Condition met when EC50 is strictly under 30 nM; else Condition not met.

*Q* Here's an entry: O=C1Nc2ccc(Cl)cc2[C@@](C#CC2CC2)(C(F)(F)F)O1 [EFAVIRENZ] . Is its EC50 below 30 nM?
*A* Condition met

*Q* Take the compound `Cc1cc(/C(Cl)=C/C#N)cc(C)c1Nc1ccnc(Nc2ccc(C#N)cc2)n1` and say whether its EC50 is less than 30 nM.
*A* Condition met

*Q* Hello, is EC50 of the following compound strictly smaller than 30 nM? `Cc1cc(CCC#N)cc(C)c1Nc1ccnc(Nc2ccc(C#N)cc2)n1`
*A* Condition met
